- System: rice (Oryza sativa)
- ASSAY_INFO: Test B flooded paddy
- Type: in vivo
- PROTOCOL_CONDITIONS: 250 g ai/ha, Flood, 13 to 15 days, scale 0 (no effect) to 100 (complete control)
For each entry below, report its Plant response rating, Rice value.

MOLECULE | Plant response rating, Rice
N#Cc1cccc(Oc2ncc(C(F)(F)F)cn2)c1Oc1ncc(C(F)(F)F)cn1 [Compound 35] | 40
N#Cc1cccc(Oc2ncc(Cl)cn2)c1Oc1ccc(C(F)(F)F)nc1 [Compound 13] | 0
Fc1ccc(F)c(Oc2ncc(C(F)(F)F)cn2)c1Oc1ncc(C(F)(F)F)cn1 [Compound 30] | 0
N#Cc1cccc(Oc2ncc(Cl)cn2)c1Oc1ccc(C(F)(F)F)nn1 [Compound 26] | 0
Fc1ccc(Oc2ccc(C(F)(F)F)cn2)c(Oc2ncc(Cl)cn2)c1 [Compound 45] | 0

The record that follows has no Plant response rating, Rice shown yet.
[in] What Plant response rating, Rice value was documented for this molecule, FC(F)(F)c1cnc(Oc2c(Br)cccc2Oc2ncc(Cl)cn2)nc1 [Compound 24] ?
[out] 90

###

- System: ducksalad (Heteranthera limosa)
- ASSAY_INFO: Test B flooded paddy
- Type: in vivo
- PROTOCOL_CONDITIONS: Heteranthera limosa, 336 h; 250 g ai/ha, Flood, 13 to 15 days, scale 0 (no effect) to 100 (complete control); read-out: Plant response rating, Ducksalad
For each entry below, report its pest or weed control at 250 g/ha value.
Numbers only, in %.

// known answers, use as guide
INPUT_SMILES | TARGET_SYSTEM | UNITS | pest or weed control at 250 g/ha
N#Cc1cccc(Oc2ncc(Cl)cn2)c1Oc1ccc(Cl)cn1 | ducksalad (Heteranthera limosa) | % | 90
N#Cc1cccc(Oc2ncc(Cl)cn2)c1Oc1ncc(C(F)(F)F)cn1 | ducksalad (Heteranthera limosa) | % | 100
N#Cc1cccc(Oc2ncc(Br)cn2)c1Oc1ccc(Cl)cn1 | ducksalad (Heteranthera limosa) | % | 100

[in] What pest or weed control at 250 g/ha value was documented for this molecule, `Fc1cccc(Oc2ncc(Cl)cn2)c1Oc1ccc(Cl)nc1` ?
[out] 95

###

For each entry below, report its pest or weed control at 62 g/ha value.
- Tested on: pigweed (Amaranthus retroflexus)
- ASSAY_INFO: Test C preemergence
- Assay type: in vivo
- PROTOCOL_CONDITIONS: Amaranthus retroflexus, pre-emergence, 336 h; 62 g ai/ha, preemergence; scale 0 to 100; read-out: Plant response rating, Pigweed
Give bare numbers, in %.

// known answers, use as guide
INPUT_SMILES | RESULT_TYPE | UNITS | MEASUREMENT
FC(F)c1cccc(Oc2ncc(Cl)cn2)c1Oc1ncc(Cl)cn1 | pest or weed control at 62 g/ha | % | 100
N#Cc1cccc(Oc2ncc(Cl)cn2)c1Oc1ncc(C(F)(F)F)cn1 | pest or weed control at 62 g/ha | % | 100
Fc1cccc(Oc2ncc(Cl)cn2)c1Oc1ncc(C(F)(F)F)cn1 | pest or weed control at 62 g/ha | % | 100

For each of the molecules below, state pest or weed control at 62 g/ha.
1. Fc1ccc(F)c(Oc2ncc(Cl)cn2)c1Oc1ncc(Cl)cn1
2. N#Cc1cccc(Oc2ncc(Cl)cn2)c1Oc1ncc(Br)cn1

[out]
100
70
